- System Under Test: UniProt Q9QY42
- Sequence (Q9QY42 27-600): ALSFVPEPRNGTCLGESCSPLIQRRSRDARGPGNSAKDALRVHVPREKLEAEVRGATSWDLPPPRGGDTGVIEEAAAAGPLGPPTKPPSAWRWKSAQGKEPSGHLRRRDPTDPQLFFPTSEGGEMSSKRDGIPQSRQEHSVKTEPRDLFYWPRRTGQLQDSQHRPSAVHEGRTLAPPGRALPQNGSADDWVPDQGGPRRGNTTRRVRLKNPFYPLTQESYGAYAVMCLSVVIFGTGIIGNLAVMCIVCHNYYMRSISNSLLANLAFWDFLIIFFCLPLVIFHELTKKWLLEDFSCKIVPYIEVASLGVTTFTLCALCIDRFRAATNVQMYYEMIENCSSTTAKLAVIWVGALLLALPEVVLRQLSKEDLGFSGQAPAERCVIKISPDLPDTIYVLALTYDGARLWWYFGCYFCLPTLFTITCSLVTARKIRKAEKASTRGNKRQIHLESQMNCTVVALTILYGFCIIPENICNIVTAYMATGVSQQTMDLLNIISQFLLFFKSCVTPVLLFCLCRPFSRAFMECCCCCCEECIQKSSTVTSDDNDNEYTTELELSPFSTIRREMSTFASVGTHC
- Assay Protocol: Ca2+ imaging (Fluo-4AM) in peritoneal macrophages (pMΦ) from WT and Gpr37−/− mice
- Format: cell-based
- Test Parameters: pMΦ, dose response; read-out: EC50 of iCa2+ increase
Quantity Name: EC50 (nM)
Use nM as the unit, but write only the number.

# EC50 of CC/C=C\C[C@H](O)\C=C/C=C/C=C/[C@H](O)C/C=C\C/C=C\CCC(=O)O [NPD1, neuroprotectin D1] = 19.5
